Measured values drawn from patent US20260008758A1 for this set.

target: human DPP1 enzyme (Homo sapiens (Human)); experiment: Human DPP1 enzyme IC50 assay; format: biochemical; conditions: recombinant human DPP1, H-Gly-Arg-AMC substrate 400 μM
Sequence (P53634 25-134): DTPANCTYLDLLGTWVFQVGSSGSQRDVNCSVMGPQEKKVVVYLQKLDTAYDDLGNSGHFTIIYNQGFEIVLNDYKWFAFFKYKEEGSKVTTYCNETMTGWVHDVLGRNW
Sequence (P53634 231-394): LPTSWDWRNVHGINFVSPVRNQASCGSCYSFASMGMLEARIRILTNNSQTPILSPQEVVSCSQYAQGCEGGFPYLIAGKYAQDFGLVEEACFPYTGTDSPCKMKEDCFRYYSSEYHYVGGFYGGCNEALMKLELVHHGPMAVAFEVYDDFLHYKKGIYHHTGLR
Sequence (P53634 395-463): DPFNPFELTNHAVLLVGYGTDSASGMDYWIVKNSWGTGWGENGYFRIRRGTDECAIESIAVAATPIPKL
IC50: recorded values

* CN[C@H](C)C(=O)N[C@H](C#N)Cc1ccc(-c2ccc3oc(=O)n(C)c3c2)cc1 [Compound 152] | ≥ 15 nM
* Cn1c(=O)oc2ccc(-c3ccc(C[C@@H](C#N)NC(=O)C(C)(N)C4CCCC4)cc3)cc21 (stereo partly shown) [Compound 219] | ≤ 5 nM
* CN(C)C[C@H](O)C(=O)N[C@H](C#N)Cc1ccc(-c2ccc3c(c2)C2(CCCN(C)C2)C(=O)N3C)cc1 (stereo partly shown) [Compound 145] | ≥ 15 nM

Would you mind telling me what IC50 value was observed for C[C@@H](N)[C@H](O)C(=O)N[C@H](C#N)Cc1ccc(-c2ccc3oc(=O)n(C)c3c2)cc1 [Compound 102A] ?
≥ 15 nM

Would you mind telling me what IC50 value was observed for CN(C)C[C@H](O)C(=O)N[C@H](C#N)Cc1ccc(-c2ccc3nnn(C)c3c2)cc1F [Compound 141] ?
5 to 15 nM

Would you mind telling me what IC50 value was observed for Cn1c(=O)oc2ccc(-c3ccc(C[C@@H](C#N)NC(=O)CC(N)CCc4ccccc4)cc3)cc21 (stereo partly shown) [Compound 183] ?
≥ 15 nM

Would you mind telling me what IC50 value was observed for Cn1c(=O)oc2ccc(-c3ccc(C[C@@H](C#N)NC(=O)C[C@H](N)c4ccccc4O)cc3)cc21 [Compound 227A] ?
≥ 15 nM

---

biological target: DPP1 in HL-60 cells (Homo sapiens (Human), UniProt P53634); assay: DPP1 Cell IC50 assay; details: H-Gly-Phe-AFC substrate, 60 min pre-incubation
Sequence (P53634 25-134): as the sequence (P53634 25-134) above
Sequence (P53634 231-394): as the sequence (P53634 231-394) above
Sequence (P53634 395-463): as the sequence (P53634 395-463) above
IC50: recorded values

Would you mind telling me what IC50 value was observed for CN(C)C[C@H](O)C(=O)N[C@H](C#N)Cc1ccc(-c2ccc3nnn(C)c3c2)cc1F ?
1 to 2.5 nM

Would you mind telling me what IC50 value was observed for CCN1C(=O)Cc2ccc(-c3ccc(C[C@@H](C#N)NC(=O)[C@](C)(N)C4CCCC4)c(F)c3)cc21 [Compound 264B] ?
1 to 2.5 nM

Would you mind telling me what IC50 value was observed for Cn1c(=O)oc2ccc(-c3ccc(C[C@@H](C#N)NC(=O)C(N)Cc4cocn4)cc3)cc21 (stereo partly drawn) ?
1 to 2.5 nM

Would you mind telling me what IC50 value was observed for Cn1c(=O)oc2ccc(-c3ccc(C[C@@H](C#N)NC(=O)[C@H](N)Cc4c[nH]cn4)cc3)cc21 ?
≥ 2.5 nM

---

pIC50: recorded values
target: DPP1 in HL-60 cells (Homo sapiens (Human)); test: DPP1 Cell IC50 assay; conditions: H-Gly-Phe-AFC substrate, 60 min pre-incubation
pIC50: −log10 of the molar value.

• CN(C)C[C@H](O)C(=O)N[C@H](C#N)Cc1ccc(-c2ccc3oc(=O)n(C)c3c2)cc1 [Compound 101] = 8.60 to 9.00
• CN(C)C[C@H](O)C(=O)N[C@H](C#N)Cc1ccc(-c2ccc3oc(=O)n(CCN4CCOCC4)c3c2)cc1F [Compound 142] = ≤ 8.60

Entry CN(C)C[C@H](O)C(=O)N[C@H](C#N)Cc1ccc(-c2ccc3cnn(C4CCN(C5COC5)CC4)c3c2)cc1 [Compound 282] , system DPP1 in HL-60 cells (Homo sapiens (Human)): what pIC50 was measured?
≤ 8.60

Entry CN(C)C[C@H](O)C(=O)N[C@H](C#N)Cc1ccc(-c2ccc3cnn(C4CCN(C5COC5)CC4)c3c2)cc1F [Compound 287] , system DPP1 in HL-60 cells (Homo sapiens (Human)): what pIC50 was measured?
≤ 8.60

Entry Cn1c(=O)oc2ccc(-c3ccc(C[C@@H](C#N)NC(=O)C(N)Cc4cccnc4O)cc3)cc21 (stereo partly shown) [Compound 199] , system DPP1 in HL-60 cells (Homo sapiens (Human)): what pIC50 was measured?
≤ 8.60

Entry C[C@@H](NCc1cccs1)C(=O)N[C@H](C#N)Cc1ccc(-c2ccc3oc(=O)n(C)c3c2)cc1 [Compound 232] , system DPP1 in HL-60 cells (Homo sapiens (Human)): what pIC50 was measured?
≤ 8.60

Entry CN(C)CCn1c(=O)oc2ccc(-c3ccc(C[C@@H](C#N)NC(=O)C(C)(N)C4CCC4)c(F)c3)cc21 (stereo partly shown) [Compound 268] , system DPP1 in HL-60 cells (Homo sapiens (Human)): what pIC50 was measured?
8.60 to 9.00

Entry CO[C@@H](CN(C)C)C(=O)N[C@H](C#N)Cc1ccc(-c2ccc3cnn(C4CCN(C)CC4)c3c2)cc1F [Compound 286] , system DPP1 in HL-60 cells (Homo sapiens (Human)): what pIC50 was measured?
≤ 8.60

Entry C[C@H](O)[C@@](C)(N)C(=O)N[C@H](C#N)Cc1ccc(-c2ccc3oc(=O)n(C)c3c2)cc1 [Compound 171D] , system DPP1 in HL-60 cells (Homo sapiens (Human)): what pIC50 was measured?
≤ 8.60

Entry CO[C@@H](CN(C)C)C(=O)N[C@H](C#N)Cc1ccc(-c2ccc3c(c2)C2(CCN(C4COC4)CC2)OC3)cc1F [Compound 284] , system DPP1 in HL-60 cells (Homo sapiens (Human)): what pIC50 was measured?
≤ 8.60

Entry Cn1c(=O)oc2ccc(-c3ccc(C[C@@H](C#N)NC(=O)C(N)Cc4cc[nH]c4)cc3)cc21 (stereo partly shown) [Compound 208] , system DPP1 in HL-60 cells (Homo sapiens (Human)): what pIC50 was measured?
≤ 8.60

Entry Cn1c(=O)oc2ccc(-c3ccc(C[C@@H](C#N)NC(=O)CC(N)C4CCCCC4)cc3)cc21 (stereo partly shown) [Compound 190] , system DPP1 in HL-60 cells (Homo sapiens (Human)): what pIC50 was measured?
≤ 8.60

Entry Cn1ccc(CC(N)C(=O)N[C@H](C#N)Cc2ccc(-c3ccc4oc(=O)n(C)c4c3)cc2)c1 (stereo partly shown) [Compound 254] , system DPP1 in HL-60 cells (Homo sapiens (Human)): what pIC50 was measured?
≤ 8.60

---

target: DPP1 in HL-60 cells (Homo sapiens (Human)); assay: DPP1 cell single-point percent inhibition testing (HL-60 cells, H-Gly-Phe-AFC substrate); format: cell-based; conditions: read-out: DPP1 cell % inhibition @ 5 nM, 5 nM compound, 100 μM H-Gly-Phe-AFC, 60 min pre-incubation at 37° C.
inhibition at 0.005 µM: recorded values

• CN(C)C[C@](C)(O)C(=O)N[C@H](C#N)Cc1ccc(-c2ccc3nnn(C)c3c2)cc1F [Compound 417] = 76.5 to 93.9%
• CO[C@@H](CN(C)C)C(=O)N[C@H](C#N)Cc1ccc(-c2cnc3c(n2)CCCC3)cc1F [Compound 334] = ≤ 76.5%
• CN(C)C[C@H](O)C(=O)N[C@H](C#N)Cc1ccc(-c2ccc3c(c2)C2(CCN(C4COC4)CC2)OC3)cc1F [Compound 363] = ≤ 76.5%
• CN(C)C[C@H](O)C(=O)N[C@H](C#N)Cc1ccc(-c2ccc3nnn(C)c3c2)cc1 [Compound 371] = ≤ 76.5%
• CO[C@@H](CN(C)C)C(=O)N[C@H](C#N)Cc1ccc(-c2cnc3c(n2)CCCC3)cc1 [Compound 330] = ≤ 76.5%
• CN(C)C[C@H](O)C(=O)N[C@H](C#N)Cc1ccc(-c2ccc3c(c2)C2(CCN(C4COC4)CC2)OC3)cc1 [Compound 350] = ≤ 76.5%

Lab note: next molecule to report on.
Entry CCN1C(=O)Cc2ccc(-c3ccc(C[C@@H](C#N)NC(=O)[C@@H](O)CN(C)C)c(F)c3)cc21 [Compound 360] , system DPP1 in HL-60 cells (Homo sapiens (Human)): what inhibition at 0.005 µM was measured?
76.5 to 93.9%

---

IC50: recorded values
target: human DPP1 enzyme (Homo sapiens (Human)); assay: Human DPP1 enzyme IC50 assay; format: biochemical; conditions: recombinant human DPP1, H-Gly-Arg-AMC substrate 400 μM

Please review the following examples before continuing.
* Cn1c(=O)oc2ccc(-c3ccc(C[C@@H](C#N)NC(=O)[C@@H](N)[C@H]4CCc5ccccc54)cc3)cc21 [Compound 207] | ≥ 15 nM
* Cn1c(=O)oc2ccc(-c3ccc(C[C@@H](C#N)NC(=O)C[C@@H](N)C4CCCO4)cc3)cc21 (stereo partly drawn) [Compound 226] | ≥ 15 nM

Would you mind telling me what IC50 value was observed for COCCN(C)CCn1c(=O)oc2ccc(-c3ccc(C[C@@H](C#N)NC(=O)[C@@](C)(N)C4CCCC4)cc3)cc21 [Compound 258A] ?
≥ 15 nM

---

target: DPP1 in HL-60 cells (Homo sapiens (Human)); assay: DPP1 Cell IC50 assay; conditions: H-Gly-Phe-AFC substrate, 60 min pre-incubation
pIC50: −log10 of the molar value.
ASSAY_ENDPOINT: pIC50

Please review the following examples before continuing.
• CN(C)C[C@H](O)C(=O)N[C@H](C#N)Cc1ccc(-c2ccc3c(c2)C2(CN(C)C2)OC3=O)cc1 [Compound 137] = ≤ 8.60
• C[C@@H](O)[C@](C)(N)C(=O)N[C@H](C#N)Cc1ccc(-c2ccc3oc(=O)n(C)c3c2)cc1 [Compound 171A] = ≤ 8.60
• Cn1c(=O)oc2ccc(-c3ccc(C[C@@H](C#N)NC(=O)[C@@H](O)CN)cc3)cc21 [Compound 110] = ≤ 8.60
• CCN1C(=O)Cc2ccc(-c3ccc(C[C@@H](C#N)NC(=O)[C@@](C)(N)C4CCCC4)cc3)cc21 [Compound 259A] = 8.60 to 9.00
• CN1CCC2(CCc3ccc(-c4ccc(C[C@@H](C#N)NC(=O)C(C)(N)C5CCC5)c(F)c4)cc32)CC1 (some centres unmarked) [Compound 269] = ≤ 8.60
• Cn1c(=O)oc2ccc(-c3ccc(C[C@@H](C#N)NC(=O)C(C)(N)C4CCC4)cc3)cc21 (some centres unmarked) [Compound 220] = 8.60 to 9.00
• CN(C)C[C@H](O)C(=O)N[C@H](C#N)Cc1ccc(-c2ccc3c(c2)C2(CCCN(C)C2)C(=O)N3C)cc1 (some centres unmarked) [Compound 145] = 8.60 to 9.00
• CN(C)C[C@H](O)C(=O)N[C@H](C#N)Cc1ccc(-c2ccc3oc(=O)n(C)c3c2)cc1F [Compound 138] = ≥ 9.00

Would you mind telling me what pIC50 value was observed for CC(C)C(C)(N)C(=O)N[C@H](C#N)Cc1ccc(-c2ccc3oc(=O)n(C)c3c2)cc1 (some centres unmarked) [Compound 172] ?
8.60 to 9.00

Would you mind telling me what pIC50 value was observed for Cn1c(=O)oc2ccc(-c3ccc(C[C@@H](C#N)NC(=O)[C@H](N)CCO)cc3)cc21 [Compound 169] ?
≤ 8.60

Would you mind telling me what pIC50 value was observed for CC(C)C(N)CC(=O)N[C@H](C#N)Cc1ccc(-c2ccc3oc(=O)n(C)c3c2)cc1 (some centres unmarked) [Compound 164] ?
≤ 8.60
